B1: ZNF449 (parent)
chain: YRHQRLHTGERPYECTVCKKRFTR

Variants of: B1
Assay: protein stability index of a GFP-peptide fusion (GPS, HEK-293T) (PSI 1-6); higher = more stable;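 further: lentivirally expressed fusions sorted by FACS into six bins by GFP to DsRed ratio, PSI derived from sequencing read proportions per bin multiplied by bin number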
Conditions: c terminus: a fixed tail appended
// protein stability index lookup, one value per entry
Just the number, please, no unit attached.

Y13C    3.74
T23G    2.41

Req: Fill in: protein stability index of "T23F" is ___
Resp: 2.62

Req: Fill in: protein stability index of "K20I" is ___
Resp: 2.26

Req: Fill in: protein stability index of "T16H" is ___
Resp: 2.24

Req: Fill in: protein stability index of "T23Q" is ___
Resp: 2.16

Req: Fill in: protein stability index of "H7C" is ___
Resp: 2.65

Req: Fill in: protein stability index of "H7N" is ___
Resp: 2.64

Req: Fill in: protein stability index of "R11K" is ___
Resp: 2.59

Req: Fill in: protein stability index of "R11P" is ___
Resp: 2.33

Req: Fill in: protein stability index of "P12A" is ___
Resp: 2.54
